Data origin: ChEMBL document CHEMBL1139201

- Species: Homo sapiens
- Assay: Inhibition of topoisomerase 2 mediated relaxation of plasmid DNA at 100 uM
The source made the active and inactive calls. The calls are words filed in the database; no cut-off is given here.
Outcome codes: True (active), False (inactive)

                            chemical_smiles  class_assignment
0  Cc1ccc(S(=O)(=O)n2cc3c4c2C(=O)C(NCc2ccccc2)=CC4=NCC3)cc1              True
1            CCNC1=CC2=NCCc3c[nH]c(c32)C1=O             False
2  O=C1C(NCCc2ccc(O)cc2)=CC2=NCCc3c[nH]c1c32             False
3  O=C1C(NCCc2c[nH]c3ccccc23)=CC2=NCCc3c[nH]c1c32             False
4             CNC1=CC2=NCCc3c[nH]c(c32)C1=O             False
5  Cc1ccc(S(=O)(=O)n2cc3c4c2C(=O)C(NCCc2ccc(O)cc2)=CC4=NCC3)cc1              True
6  O=C1C(NCCc2cc(Br)c(O)c(Br)c2)=CC2=NCCc3c[nH]c1c32              True
